Origin of the recorded values: paper PMC8699473

- test_description: Short-term stability in spiked pooled human plasma (bench-top, 4 °C, 56 °C)
- reported_conditions: validation standard LLOV
measurement_type: Short-time stability (24h, 4°C, without daylight) Accuracy [%] (%)
// units = %; emit number, no label

Noted for CCCS(=O)(=O)Nc1ccc(F)c(C(=O)c2c[nH]c3ncc(-c4ccc(Cl)cc4)cc23)c1F [Vemurafenib] : its Short-time stability (24h, 4°C, without daylight) Accuracy [%] reads 90.0

Given item Cc1ccc(Nc2nccc(N(C)c3ccc4c(C)n(C)nc4c3)n2)cc1S(N)(=O)=O [Pazopanib] , the value recorded as its Short-time stability (24h, 4°C, without daylight) Accuracy [%] is 104.1

So for COc1cc2nccc(Oc3ccc(NC(=O)C4(C(=O)Nc5ccc(F)cc5)CC4)cc3)c2cc1OC [Cabozantinib] , the logged Short-time stability (24h, 4°C, without daylight) Accuracy [%] turned out to be 98.5

# compound Cc1c(C(=O)Nc2ccc(N3C[C@@H](C)O[C@@H](C)C3)nc2)cccc1-c1ccc(OC(F)(F)F)cc1 [Sonidegib] ; its Short-time stability (24h, 4°C, without daylight) Accuracy [%] = 96.4

The compound CO[C@@H]1[C@H](N(C)C(=O)c2ccccc2)C[C@H]2O[C@]1(C)n1c3ccccc3c3c4c(c5c6ccccc6n2c5c31)C(=O)NC4 [Midostaurin] showed Short-time stability (24h, 4°C, without daylight) Accuracy [%] equal to 90.3

Short-time stability (24h, 4°C, without daylight) Accuracy [%] recorded for this compound, C[C@]12CC[C@H](O)CC1=CC[C@@H]1[C@@H]2CC[C@]2(C)C(c3cccnc3)=CC[C@@H]12 [Abiraterone] , is 104.6

Noted for COc1cc2ncnc(Nc3ccc(F)c(Cl)c3)c2cc1NC(=O)/C=C/CN1CCCCC1 [Dacomitinib] : its Short-time stability (24h, 4°C, without daylight) Accuracy [%] reads 90.8

* * *

- test_description: Long-term stability in spiked pooled human plasma
- reported_conditions: validation standard LLOV
Please respond with reported Long-term stability, 6 weeks, 4°C, without daylight Accuracy [%] for every item in the list.
Response body: numeric value in %, unit text excluded.

// recorded Long-term stability, 6 weeks, 4°C, without daylight Accuracy [%] for `C[C@@H](Oc1cc(-c2cnn(C3CCNCC3)c2)cnc1N)c1c(Cl)ccc(F)c1Cl` : 58.2

Long-term stability, 6 weeks, 4°C, without daylight Accuracy [%] recorded for this compound, `COc1cc2nccc(Oc3ccc(NC(=O)NC4CC4)c(Cl)c3)c2cc1C(N)=O` , is 127.4

Item: `O=C(c1ccc(F)c(F)c1Nc1ccc(I)cc1F)N1CC(O)([C@@H]2CCCCN2)C1` | Long-term stability, 6 weeks, 4°C, without daylight Accuracy [%]: 94.5

The measured Long-term stability, 6 weeks, 4°C, without daylight Accuracy [%] associated with `CCCS(=O)(=O)Nc1ccc(F)c(C(=O)c2c[nH]c3ncc(-c4ccc(Cl)cc4)cc23)c1F` reads 85.9

The reported value for CNC(=O)c1ccc(N2C(=S)N(c3ccc(C#N)c(C(F)(F)F)c3)C(=O)C2(C)C)cc1F [Enzalutamide] in terms of Long-term stability, 6 weeks, 4°C, without daylight Accuracy [%] is 97.2

The value of Long-term stability, 6 weeks, 4°C, without daylight Accuracy [%] measured for the compound `Cc1ccc(NC(=O)c2ccc(CN3CCN(C)CC3)cc2)cc1Nc1nccc(-c2cccnc2)n1` turned out to be 86.4

GET /value?item= COc1cc2nccc(Oc3ccc(NC(=O)C4(C(=O)Nc5ccc(F)cc5)CC4)cc3)c2cc1OC [Cabozantinib] &field=Long-term stability, 6 weeks, 4°C, without daylight Accuracy [%] returns 94.1

The measured Long-term stability, 6 weeks, 4°C, without daylight Accuracy [%] associated with `COc1cc2ncnc(Nc3ccc(F)c(Cl)c3)c2cc1OCCCN1CCOCC1` reads 78.5
